- Measurement Target: T1, mouse MAdCAM expressed on cells (mouse, UniProt Q61826 22-405)
- T1 construct: whole, on cells
- T1 sequence (looked up): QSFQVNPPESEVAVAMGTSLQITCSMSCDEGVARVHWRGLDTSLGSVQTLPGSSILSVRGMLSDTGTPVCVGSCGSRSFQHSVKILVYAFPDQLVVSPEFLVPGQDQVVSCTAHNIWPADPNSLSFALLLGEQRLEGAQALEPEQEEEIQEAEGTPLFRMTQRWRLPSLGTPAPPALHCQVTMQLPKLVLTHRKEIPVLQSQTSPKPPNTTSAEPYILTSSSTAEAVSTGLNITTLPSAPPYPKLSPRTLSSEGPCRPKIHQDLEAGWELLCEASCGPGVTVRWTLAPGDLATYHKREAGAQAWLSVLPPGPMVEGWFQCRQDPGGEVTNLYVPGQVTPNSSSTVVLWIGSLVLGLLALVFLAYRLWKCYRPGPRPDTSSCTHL
- Assay Overview: cell binding
Assay Endpoint: binding result

For MAdCAM Antibody Table 2 Clone 72 (antibody, human IgG1, V domains shown) VH: QVQLVQSGAEVKKPGASVKVSCKASGYTFTSYYMHWVRQAPGQGLEWMGVINPIGGTTTYAQKFQGRVTMTRDTSTSTVYMELSSLRSEDTAVYYCASGAPSYYYYGMDVWGQGTLVTVSS VL: DIQMTQSPSSLSASVGDRVTITCRASQSISSYLNWYQQKPGKAPKLLIYGTSYLATGVPSRFSGSGSGTDFTLTISSLQPEDFATYYCQQSYSTPLTFGQGTKVEIK , what is its reported binding result? no binding

For MAdCAM Antibody Table 2 Clone 41 (antibody, human IgG1, V domains shown) VH: QVQLVQSGAEVKKPGASVKVSCKASGYTFTSYYMHWVRQAPGQGLEWMGIINPSGGSTSYAQKFQGRVTMTRDTSTSTVYMELSSLRSEDTAVYYCARDTGYSYGRYYYYGMDVWGQGTLVTVSS VL: DIQMTQSPSSLSASVGDRVTITCRASQSIGRWLAWYQQKPGKAPKLLIYDASNLQSGVPSRFSGSGSGTDFTLTISSLQPEDFATYYCQQSYSIPITFGQGTKVEIK , what is its reported binding result? no binding

For MAdCAM Antibody Table 2 Clone 17 (antibody, human IgG1, V domains shown) VH: QVQLVQSGAEVKKPGSSVKVSCKASGYTFTDYHIHWVRQAPGQGLEWMGGIVPRSGSTTYAQKFQGRVTITADESTSTAYMELSSLRSEDTAVYYCAKDESSGWYYFDYWGQGTLVTVSS VL: DIVMTQSPLSLPVTPGEPASISCRSSQSLLHSNGYNYLDWYLQKPGQSPQLLIYSAYNRASGVPDRFSGSGSGTDFTLKISRVEAEDVGVYYCMQALQTPLTFGQGTKVEIK , what is its reported binding result? no binding

For MAdCAM Antibody Table 2 Clone 81 (antibody, human IgG1, V domains shown) VH: EVQLLESGGGLVKPGGSLRLSCAASGFAFSSHWMHWVRQAPGKGLEWVAGTSGSGESRDYADFVKGRFTISRDDSKNTLYLQMNSLKTEDTAVYYCARETYYYYYMDVWGKGTTVTVSS VL: DIQMTQSPSSLSASVGDRVTITCRASQGISNYLAWYQQKPGKAPKLLIYDAANLEGGVPSRFSGSGSGTDFTLTISSLQPEDFATYYCQQSDIFPPTFGQGTKVEIK , what is its reported binding result? binds
